# test target: adenosine A2 receptor (Rattus norvegicus)
# Sequence (P30543 whole entry): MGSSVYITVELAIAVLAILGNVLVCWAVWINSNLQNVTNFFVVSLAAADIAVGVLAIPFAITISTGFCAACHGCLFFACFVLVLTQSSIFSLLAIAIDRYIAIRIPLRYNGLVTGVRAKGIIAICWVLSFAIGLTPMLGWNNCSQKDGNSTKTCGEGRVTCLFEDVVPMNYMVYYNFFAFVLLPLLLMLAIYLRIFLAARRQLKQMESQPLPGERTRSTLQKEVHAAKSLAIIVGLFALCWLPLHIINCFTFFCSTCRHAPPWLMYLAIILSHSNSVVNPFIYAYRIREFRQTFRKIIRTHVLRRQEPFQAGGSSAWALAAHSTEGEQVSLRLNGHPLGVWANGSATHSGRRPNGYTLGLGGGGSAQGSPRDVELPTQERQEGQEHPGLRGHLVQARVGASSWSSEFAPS
IC50 vs 7000 nM: less than gives true (1); not less than gives false (0).

Enquiry: I wonder whether CC1(C)O[C@@H]2[C@H](O1)[C@@H](CO)O[C@H]2n1cnc2c(NCC(c3ccccc3)c3ccccc3)ncnc21 [Example 29] has IC50 below 7000 nM. Can you tell?
Return: true (1)

Enquiry: For this compound, is IC50 lower than 7000 nM? Nc1nc(NCC(c2ccccc2)c2ccc(Cl)cc2)c2ncn([C@@H]3O[C@H](CO)[C@@H](O)[C@H]3O)c2n1 (stereo partly drawn) [Example 16]
Return: true (1)

Enquiry: # check: IC50 < 7000 nM for OC[C@H]1O[C@@H](n2cnc3c(NCC(O)(c4ccccc4)c4ccccc4)ncnc32)[C@H](O)[C@@H]1O [Example 22]
Return: true (1)

Enquiry: Hi there! Is IC50 for OC[C@H]1O[C@@H](n2cnc3c(NCCCC(c4ccccc4)c4ccccc4)ncnc32)[C@H](O)[C@@H]1O [Example 6, N^6-(4,4-Diphenylbutyl)adenosine] below 7000 nM, do you know?
Return: false (0)

Enquiry: Please let me know if OC[C@H]1O[C@@H](n2cnc3c(NCC(c4ccccc4)c4ccccc4)nc(Cl)nc32)[C@H](O)[C@@H]1O [Example 3] shows IC50 below 7000 nM.
Return: true (1)
